- assay: Partition coefficient, log P at pH 7.4
- Type: physicochemical
- condition_label: octanol/water
Assignment: determine reported logD for the given molecules.
Answers are plain numbers.

smiles_structure: CN(C)c1ccc(-c2cc(=O)c3cc([125I])ccc3o2)cc1
logD: 2.69

smiles_structure: CNc1ccc(-c2cc(=O)c3cc([125I])ccc3o2)cc1
logD: 2.15

smiles_structure: COc1ccc(-c2cc(=O)c3cc([125I])ccc3o2)cc1
logD: 2.41

Incoming: logD for `O=c1cc(-c2ccc(O)cc2)oc2ccc([125I])cc12` ?
Outgoing: 1.92

---

Assignment: determine reported Drug uptake for the given compounds.
- System: Intestine
- assay: Biodistribution in ddY mouse intestine at 2 uCi, iv after 60 mins
- Type: ADME, organism-based
- condition_label: in vivo, 1 h
Numbers only, in % ID/g.

Previously resolved entries follow.
smiles_structure: CN(C)c1ccc(-c2cc(=O)c3cc([125I])ccc3o2)cc1
test_value: 18.64
//
smiles_structure: O=c1cc(-c2ccc(O)cc2)oc2ccc([125I])cc12
test_value: 27.28
//
smiles_structure: COc1ccc(-c2cc(=O)c3cc([125I])ccc3o2)cc1
test_value: 30.05

Next compound, please.
Incoming: Drug uptake for `CNc1ccc(-c2cc(=O)c3cc([125I])ccc3o2)cc1` ?
Outgoing: 21.48

---

- Tested on: Brain
- assay: Biodistribution in ddY mouse brain at 2 uCi, iv after 30 mins
- Format: ADME, organism-based
- condition_label: in vivo, 0.5 h
measurement_label: Drug uptake (% ID/g)
Numbers only, in % ID/g.

Previously resolved entries follow.
smiles_structure: O=c1cc(-c2ccc(O)cc2)oc2ccc([125I])cc12
assay_target: Brain
unit: % ID/g
Drug uptake: 0.52

smiles_structure: CNc1ccc(-c2cc(=O)c3cc([125I])ccc3o2)cc1
assay_target: Brain
unit: % ID/g
Drug uptake: 1.84

smiles_structure: CN(C)c1ccc(-c2cc(=O)c3cc([125I])ccc3o2)cc1
assay_target: Brain
unit: % ID/g
Drug uptake: 1.89

Next molecule, please.
Incoming: Drug uptake for `COc1ccc(-c2cc(=O)c3cc([125I])ccc3o2)cc1` ?
Outgoing: 0.51

---

- Tested on: Liver
- assay: Biodistribution in ddY mouse liver at 2 uCi, iv after 2 mins
- Assay type: ADME, organism-based
- condition_label: in vivo
measurement_label: Drug uptake (% ID/g)
One number for each entry, in % ID/g.

smiles_structure: CNc1ccc(-c2cc(=O)c3cc([125I])ccc3o2)cc1
measurement_label: Drug uptake
unit: % ID/g
test_value: 16.28
--
smiles_structure: O=c1cc(-c2ccc(O)cc2)oc2ccc([125I])cc12
measurement_label: Drug uptake
unit: % ID/g
test_value: 9.77
--
smiles_structure: CN(C)c1ccc(-c2cc(=O)c3cc([125I])ccc3o2)cc1
measurement_label: Drug uptake
unit: % ID/g
test_value: 15.41

Next molecule, please.
Incoming: Drug uptake for `COc1ccc(-c2cc(=O)c3cc([125I])ccc3o2)cc1` ?
Outgoing: 8.96

---

- assay_target: Amyloid-beta precursor protein (Homo sapiens)
- Sequence (P05067 whole entry): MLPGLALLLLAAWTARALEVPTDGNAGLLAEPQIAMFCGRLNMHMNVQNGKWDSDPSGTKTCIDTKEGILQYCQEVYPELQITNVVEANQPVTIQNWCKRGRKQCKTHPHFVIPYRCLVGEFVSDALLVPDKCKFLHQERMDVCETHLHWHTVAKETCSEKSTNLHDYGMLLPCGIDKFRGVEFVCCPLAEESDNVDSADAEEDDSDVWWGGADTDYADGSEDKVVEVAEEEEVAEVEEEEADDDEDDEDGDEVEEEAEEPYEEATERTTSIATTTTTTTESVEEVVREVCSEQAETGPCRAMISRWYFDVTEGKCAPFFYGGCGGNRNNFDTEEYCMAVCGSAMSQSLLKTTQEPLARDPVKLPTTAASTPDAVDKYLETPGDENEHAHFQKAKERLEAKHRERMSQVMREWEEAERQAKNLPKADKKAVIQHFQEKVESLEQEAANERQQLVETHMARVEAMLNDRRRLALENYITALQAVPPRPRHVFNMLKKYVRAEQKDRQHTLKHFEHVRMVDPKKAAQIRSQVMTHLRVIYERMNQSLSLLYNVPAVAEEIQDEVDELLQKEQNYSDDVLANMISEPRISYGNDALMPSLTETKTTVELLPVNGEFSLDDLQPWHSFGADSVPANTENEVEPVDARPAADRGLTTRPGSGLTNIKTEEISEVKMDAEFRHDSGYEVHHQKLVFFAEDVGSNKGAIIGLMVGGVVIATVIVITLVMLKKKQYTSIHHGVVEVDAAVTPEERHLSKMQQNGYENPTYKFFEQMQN
- assay: Displacement of [125I]6-iodo-4'-dimethyaminofl avone from beta amyloid (1-40) protein aggregates
measurement_label: Ki

Incoming: Ki for Nc1c(/N=N/c2ccc(-c3ccc(/N=N/c4cc(S(=O)(=O)O)c5ccccc5c4N)cc3)cc2)cc(S(=O)(=O)O)c2ccccc12 [CONGO RED] ?
Outgoing: > 1000 nM
